Test system: HCT-15 colon
assay: NCI tumour cell line growth inhibition, 48 h
quantityMeasured: GI50

# return recorded GI50 for entry `CC(=O)/C(N=Nc1ccc2oc(=O)ccc2c1)=C(\C)O` 495 nM

# return recorded GI50 for entry `CNC(=O)c1cc(N2CCc3cc(NC(=O)Nc4ccc(N5CCN(C)CC5)c(C(F)(F)F)c4)ccc32)ccn1` 879 nM

# return recorded GI50 for entry `CC1=C(C)C(=O)C(Nc2cccc(C(F)(F)F)c2)=C(Cl)C1=O` 2200 nM

# return recorded GI50 for entry `C[C@]12CC[C@H]3[C@@H](CC=C4C[C@@H](O)CC[C@@]43C)[C@@H]1CC[C@@H]2[C@](C)(O)CCc1cccnc1` 4290 nM

# return recorded GI50 for entry CCCC(=O)NC(c1cccnc1)c1ccc2c(C)ccnc2c1O (stereo not given) 539 nM

* * *

Tested on: NCI/ADR-RES ovarian
assay: NCI tumour cell line growth inhibition, 48 h; in the data active = GI50 below about 0.43 µM; inactive = the rest
Give one outcome, nothing more. List: active, inactive

How was `COc1ccc([C@@H]2[C@@H](O)C(=O)N2c2cc(OC)c(OC)c(OC)c2)cc1F` classified in this test? active

How was `CC1=C(C)C(=O)C(Nc2cccc(C(F)(F)F)c2)=C(Cl)C1=O` classified in this test? inactive

How was `C[C@]12CC[C@H]3[C@@H](CC=C4C[C@@H](O)CC[C@@]43C)[C@@H]1CC[C@@H]2[C@](C)(O)CCc1cccnc1` classified in this test? inactive

How was `CNC(=O)c1cc(N2CCc3cc(NC(=O)Nc4ccc(N5CCN(C)CC5)c(C(F)(F)F)c4)ccc32)ccn1` classified in this test? inactive

* * *

What GI50 was measured for each of the following?
System: SR leukemia
assay: NCI tumour cell line growth inhibition, 48 h

# return recorded GI50 for entry `C[C@]12CC[C@H]3[C@@H](CC=C4C[C@@H](O)CC[C@@]43C)[C@@H]1CC[C@@H]2[C@](C)(O)CCc1cccnc1` 2950 nM

# return recorded GI50 for entry `COc1cc(/C=C/C(=O)c2ccc(C)cc2)ccc1Oc1nc(NCCO)nc(N2CCOCC2)n1` 1060 nM

# return recorded GI50 for entry `CNC(=O)c1cc(N2CCc3cc(NC(=O)Nc4ccc(N5CCN(C)CC5)c(C(F)(F)F)c4)ccc32)ccn1` 790 nM

# return recorded GI50 for entry CCCC(=O)NC(c1cccnc1)c1ccc2c(C)ccnc2c1O (stereo not given) 472 nM

# return recorded GI50 for entry `CC1=C2C(=C[C@@](C)(COC(=O)c3ccc(S(=O)(=O)F)cc3)[C@@H]2OC(=O)c2ccc(S(=O)(=O)F)cc2)C(=O)[C@](C)(O)C12CC2` 480 nM

* * *

System: HCT-116 colon
assay: NCI tumour cell line growth inhibition, 48 h
quantityMeasured: TGI (µM)
Number in µM, nothing else.

# return recorded TGI for entry `CC(=O)/C(N=Nc1ccc2oc(=O)ccc2c1)=C(\C)O` 12

# return recorded TGI for entry `CNC(=O)c1cc(N2CCc3cc(NC(=O)Nc4ccc(N5CCN(C)CC5)c(C(F)(F)F)c4)ccc32)ccn1` 5.35

* * *

What TGI was measured for each of the following?
System: PC-3 prostate
assay: NCI tumour cell line growth inhibition, 48 h

# return recorded TGI for entry `CC1=C(C)C(=O)C(Nc2cccc(C(F)(F)F)c2)=C(Cl)C1=O` 12.8 µM

# return recorded TGI for entry CCCC(=O)NC(c1cccnc1)c1ccc2c(C)ccnc2c1O (centres undefined) > 100 µM

# return recorded TGI for entry `CC1=C2C(=C[C@@](C)(COC(=O)c3ccc(S(=O)(=O)F)cc3)[C@@H]2OC(=O)c2ccc(S(=O)(=O)F)cc2)C(=O)[C@](C)(O)C12CC2` 11.3 µM

# return recorded TGI for entry `COc1ccc([C@@H]2[C@@H](O)C(=O)N2c2cc(OC)c(OC)c(OC)c2)cc1F` > 100 µM

meta.source: PubChem BioAssay (NCI)
